# credit: the supplement of paper PMC10307832

Listing of entries alongside the reported relative viability.
System: NCI-H1437
Test: relative viability (nuclei count vs DMSO), 5 days (fraction); higher = more cells survive
Details: first compound 0.5 µM
Assay Metric: relative viability

Compound: Nc1ccn([C@@H]2O[C@H](CO)[C@@H](O)[C@@H]2O)c(=O)n1 [Cytarabine] + CC(=O)c1c(C)c2cnc(Nc3ccc(N4CCNCC4)cn3)nc2n(C2CCCC2)c1=O [Palbociclib] (partner 0.5 µM)
Observed Result: 0.196
//
Compound: COc1cc2nccc(Oc3ccc(NC(=O)Nc4cc(C)on4)c(Cl)c3)c2cc1OC [Tivozanib] + Cc1cc(Nc2cc(N3CCN(C)CC3)nc(Sc3ccc(NC(=O)C4CC4)cc3)n2)n[nH]1 [Tozasertib] (partner 0.1 µM)
Observed Result: 0.436
//
Compound: Nc1ccn([C@@H]2O[C@H](CO)[C@@H](O)[C@@H]2O)c(=O)n1 [Cytarabine] + Cc1cc(Nc2cc(N3CCN(C)CC3)nc(Sc3ccc(NC(=O)C4CC4)cc3)n2)n[nH]1 [Tozasertib] (partner 0.1 µM)
Observed Result: 0.175
//
Compound: Nc1ccn([C@@H]2O[C@H](CO)[C@@H](O)[C@@H]2O)c(=O)n1 [Cytarabine] + COc1cc2c(Oc3ccc(NC(=O)C4(C(=O)Nc5ccc(F)cc5)CC4)cc3F)ccnc2cc1OCCCN1CCOCC1 [Foretinib] (partner 0.25 µM)
Observed Result: 0.251
